As shown below, each of these molecules has a reported %Inh value.
Tested on: EPHA5
Conditions: concentration: 1 μM, replicates: in singlicate; n = 1;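 note: KINOMEscan kinase panel screen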
Kindly provide the numeric value in % only, without the unit symbol.

Hello, I am looking for reported %Inh with EPHA5 for `O=c1[nH]cc(-c2ccc(N3CCOCC3)cc2)c2sc(-c3cn[nH]c3)cc12` . Could you help?
0

Lab note: need %Inh with EPHA5 for entry COc1cccc(NC(=O)NC2CCN(c3ccnc(Nc4cc(OC)c(OC)c(OC)c4)n3)C2)c1 (centres unmarked) , please look it up.
0

// fetch EPHA5 %Inh for `CC(=O)Nc1nc2cnc(Nc3cc(NC(=O)c4cccc(C5(C#N)CC5)c4Cl)ccc3C)nc2s1`
3

Look up %Inh with EPHA5 for this molecule: `COc1cccc(C(=O)Nc2cccc(Oc3ccc4nc(NC(=O)C5CC5)cn4n3)c2)c1`
57

State its %Inh on EPHA5: `COCCOCCOc1cc2ncc3c4ccc(C#N)cc4[nH]c3c2cc1OC`
11

# value lookup — system EPHA5, readout %Inh, item `Nc1ncnc2c1nc(-c1ccccc1)n2-c1ccccc1`
13

Query %Inh on EPHA5 for Cl.Cl.NCC(NCc1ccc(-c2ccnc3[nH]ccc23)s1)c1ccccc1 (centres unmarked)
0

// lookup %Inh | system=EPHA5 | key= `Cn1cc(-c2[nH]c3cc(NC(=O)[C@H](N)C4CCCCC4)cc4c3c2C=NNC4=O)cn1`
12

----------
Parameter: %Inh. Scope: all listed entries.
System: CASK
Details: concentration: 1 μM, replicates: in singlicate; n = 1
# number only, unit % dropped from output

See these solved cases before continuing.
COc1ccc(Nc2nccc(N3CCC(NC(=O)Nc4cccc(OC)c4)C3)n2)cc1 (centres unmarked) [GSK1379742]: 13
CN(C)S(=O)(=O)c1cc(-c2ccc3nccc(-c4cccc(S(N)(=O)=O)c4)c3c2)cnc1N [GSK1669921]: 4
c1ccc(-c2cnc3nccnn23)cc1 [AH20685]: 4
CCCCc1nn2ncccc2c1-c1ccnc(Nc2ccc(N3CCN(C)CC3)cc2)n1 [GW684941]: 16

For the next question, use this compound.
Returns the measured %Inh for the input compound. Input: Cc1occc1-c1ncc(OC[C@@H](N)Cc2c[nH]c3ccccc23)cc1-c1ccc2[nH]nc(C)c2c1.O=C(O)C(F)(F)F [GSK682037]
11

----------
System: ICK
Details: concentration: 1 μM, replicates: in singlicate; n = 1
The reader will find reported %Inh values listed item by item below.
Expressed in %, but write only the number.

// solved cases for %Inh follow
C[C@@H](Oc1cc(-n2cnc3cc(-c4ccnc(NCCS(C)(=O)=O)c4)ccc32)sc1C(N)=O)c1ccccc1Cl: 19
COc1cc(Nc2nccc(N3CCC(NC(=O)Nc4cccc(C(C)=O)c4)C3)n2)cc(OC)c1OC (centres unmarked): 11
COc1ccc(Nc2nccc(NCCNC(=O)c3cc4ccccc4s3)n2)cc1: 0
CCCCc1nn2ncccc2c1-c1ccnc(Nc2ccc(N3CCN(C)CC3)cc2)n1: 17
CCc1ccc(-c2ccc3c(c2)-c2c(cnn2C)S(=O)(=O)N3C)cc1: 4
O=C(Nc1cccc(-c2nn3ncccc3c2-c2ccnc(Nc3ccccc3)n2)c1)c1c(F)cccc1F: 0

Give its %Inh value. Item: `Nc1ncc(-c2cccnc2)c2scc(-c3ccc4c(c3)CCN4C(=O)Cc3ccccc3)c12`
8

// query %Inh value for entry `Cn1cc(-c2[nH]c3cc(NC(=O)[C@H](N)C4CCCCC4)cc4c3c2C=NNC4=O)cn1`
0

----------
Reported %Inh by item:
System: SIK2
Settings: concentration: 1 μM, replicates: in singlicate; n = 1
Give just the number in %; leave the unit off.

Cc1ccc(F)c(C(=O)Nc2cccc(-c3nn4ccccc4c3-c3ccnc(Nc4cccc(F)c4)n3)c2)c1F: 29
COc1cc(Nc2nccc(N3CCC(NC(=O)Nc4cccc(C(C)=O)c4)C3)n2)cc(OC)c1OC (stereo not drawn): 0
NCCCC(NC(=O)c1cc(Br)c(-c2ccnc3[nH]ccc23)s1)c1ccccc1.O=C(O)C(F)(F)F.O=C(O)C(F)(F)F (stereo not drawn): 0

Dear colleague, I am looking for the recorded %Inh of the following compound: `Nc1ncc(-c2ccc3nccc(-c4ccncc4)c3c2)cc1S(=O)(=O)N1CCOCC1`
0

Query (compound): `FC(F)(F)c1ccc(/C=C/c2cncnc2Nc2ccc3[nH]c(Cc4ccccc4)nc3c2)cc1` ; field requested: %Inh
4

Value lookup for %Inh; key = `COc1cc(Nc2nccc(-c3c(-c4cccc(NC(=O)c5c(F)cccc5F)c4)nn4ccccc34)n2)cc(OC)c1OC`
0

So what's the measured %Inh for this one? Cl.Cl.NCC(NCc1ccc(-c2ccnc3[nH]ccc23)s1)c1ccccc1 (stereo not drawn)
0

Form field: reported %Inh of Cl.Cl.NCC(NC(=O)c1cc(-c2ccccc2)c(-c2ccnc3[nH]ccc23)s1)c1ccccc1 (stereo not drawn)
0

// query %Inh value for entry `Cc1occc1-c1ncc(OC[C@@H](N)Cc2c[nH]c3ccccc23)cc1-c1ccc2[nH]nc(C)c2c1.O=C(O)C(F)(F)F`
65

Item `CCCCc1nn2ncccc2c1-c1ccnc(Nc2ccc(N3CCN(C)CC3)cc2)n1` has what recorded %Inh?
84

Look up %Inh: `CCn1c(-c2nonc2N)nc2c(C#CC(C)(C)O)nc(OC[C@H](N)c3ccccc3)cc21`
0

Fill in the blank: the reported %Inh of `COc1cc(Nc2nccc(-c3c(-c4cccc(NC(=O)c5c(F)cccc5F)c4)nn4ncccc34)n2)cc(OC)c1OC` is ____.
26

Record request: %Inh value, item `Cn1cc(-c2[nH]c3cc(NC(=O)[C@H](N)C4CCCCC4)cc4c3c2C=NNC4=O)cn1`
95.2

Name the recorded %Inh for `CC(C)c1nc(-c2cccc(NS(=O)(=O)c3c(F)cccc3F)c2F)c(-c2ccnc(Nc3ccc(N4CCOCC4)nc3)n2)s1` .
91.3

Given `Cl.c1ccc(-c2ccc3c(Nc4ccc5[nH]ncc5c4)ccnc3c2)nc1` , state its recorded %Inh.
0

----------
Each item that follows carries a reported %Inh.
Tested on: WNK1
Details: concentration: 1 μM, replicates: in singlicate; n = 1
Quick reminder: number only, in %, skip the unit.

Sample records with %Inh:
c1ccc(-c2n[nH]cc2Nc2ccnc3ccccc23)nc1: 0
O=C(Nc1cccc(Oc2ccc3nc(NC(=O)C4CC4)cn3n2)c1)c1ccccc1C(F)(F)F: 0
CCc1ccc(-c2ccc3c(c2)-c2c(cnn2C)S(=O)(=O)N3C)cc1: 0
COC(=O)Nc1nc2ccc(Oc3ccc(NC(=O)Nc4cc(C(F)(F)F)ccc4F)cc3)cc2n1C.Cl: 0
FC(F)(F)c1ccc(/C=C/c2cncnc2Nc2ccc3[nH]c(Cc4ccccc4)nc3c2)cc1: 0
COc1ccc(Nc2nccc(N3CCC(NC(=O)Nc4cccc(OC)c4)C3)n2)cc1 (centres unmarked): 0
CSc1cccc2c(-c3ccncn3)c(-c3ccc(F)cc3)nn12: 0
c1ccc(-c2cnc3nccnn23)cc1: 0
O=c1[nH]cc(-c2ccc(N3CCOCC3)cc2)c2sc(-c3cn[nH]c3)cc12: 7
CN(C)S(=O)(=O)c1cc(-c2ccc3nccc(-c4cccc(S(N)(=O)=O)c4)c3c2)cnc1N: 0

Given the entry `Nc1ncc(-c2ccc3nccc(-c4ccncc4)c3c2)cc1S(=O)(=O)N1CCOCC1` , report its measured %Inh.
0

Need %Inh, item `CN1CCN(CCCNc2nccc(-c3c(-c4ccc(F)cc4)nn4cc(C(F)(F)F)ccc34)n2)CC1`
3

Please look up its %Inh: `Cc1occc1-c1ncc(OC[C@@H](N)Cc2c[nH]c3ccccc23)cc1-c1ccc2[nH]nc(C)c2c1.O=C(O)C(F)(F)F`
11

Fill in: %Inh of Cl.Cl.NCC(NCc1ccc(-c2ccnc3[nH]ccc23)s1)c1ccccc1 (centres unmarked) is ___
0

I am curious: what %Inh value has been reported for `Nc1n[nH]c2cnc(-c3ccccc3)cc12` ?
8

Could you tell me which %Inh is on file for `CNC(=O)c1ccccc1Nc1nc(Nc2ccc(N3CCOCC3)cc2)ncc1Cl.Cl` ?
12

Consider the compound `COc1cc(Nc2nccc(-c3c(-c4cccc(NC(=O)c5c(F)cccc5F)c4)nn4ccccc34)n2)cc(OC)c1OC` and give its measured %Inh.
27

----------
Entries and their measured %Inh follow.
System: PDGFRB
Settings: concentration: 1 μM, replicates: in singlicate; n = 1
Give the number; % is assumed, so skip it.

CCc1ccc(-c2ccc3c(c2)-c2c(cnn2C)S(=O)(=O)N3C)cc1: 6
Cc1cccc(Nc2nc(N[C@H]3CCNC3)ncc2C(N)=O)c1.Cl: 89
NCCCC(NC(=O)c1cc(Br)c(-c2ccnc3[nH]ccc23)s1)c1ccccc1.O=C(O)C(F)(F)F.O=C(O)C(F)(F)F (stereo not shown): 28
Nc1ncc(-c2ccc3nccc(-c4ccncc4)c3c2)cc1S(=O)(=O)N1CCOCC1: 13
Clc1ccc(-c2nn3ncccc3c2-c2ccnc(Nc3ccc4c(c3)OCCO4)n2)cc1: 99.9

Let's switch to this molecule now.
Looking for the measured %Inh of `Nc1ncc(-c2cccnc2)c2scc(-c3ccc4c(c3)CCN4C(=O)Cc3ccccc3)c12` , can you help?
94.3
